Attribution: PubChem BioAssay

Examples of compounds with documented composite z-score follow.
Tested on: PRMT1 (protein arginine N-methyltransferase 1)
Test: small molecules binding arginine methyltransferase PRMT1 – biochemical, small-molecule microarray, 635 nm fluorescence, primary screen (AID 1088)
Conditions: higher = more signal

# Smiles string, composite z-score
measured = [
    ("CC[C@@H]1C=C(C(=O)O)[C@H](c2ccc(C#N)cc2)N1S(=O)(=O)c1ccc(C)cc1", 0.799),
    ("CCOC(=O)C[C@H]1[C@H](OC(=O)c2cc3ccccc3oc2=O)[C@@H](NC(=O)c2ccccc2)c2cc(OCCCO)ccc2N1C(=O)c1ccccc1", 0.58),
    ("Cc1ccc(S[C@]2(C(=O)NCC(F)(F)F)CC(=O)N(Cc3cc(C(F)(F)F)cc(C(F)(F)F)c3)[C@@H]2c2ccc(CO)cc2I)cc1", -0.0631),
    ("CCOC(=O)C[C@H]1[C@H](OC(=O)Cc2ccc3c(c2)OCO3)[C@@H](NC(=O)C2CCCCC2)c2cc(OCCCO)ccc2N1C(=O)c1ccccc1", 1.05),
    ("COc1ccc([Si](C)(C)[C@@H]2[C@@H](CC(=O)N(CCO)Cc3ccccc3)O[C@]3(C(=O)N(Cc4cccc(N5CCCCC5=O)c4)c4ccccc43)[C@H]2C)cc1", 1.42),
    ("CCOC(=O)C1=C[C@@H](C(C)(C)C)N(S(=O)(=O)c2ccc(C)cc2)[C@H]1c1cccc2ccccc12", 0.735),
    ("CCCC=C(CCC)[C@@H](NP(=O)(c1ccccc1)c1ccccc1)c1ccc(-c2ccccc2)cc1", 1.54),
]
